# Tested on: M. morganii
# ASSAY DETAILS: Minimal inhibitory concentration (liquid culture)
# CONDITION PARAMETERS: inoculum 400 CFU/ml; a-b = highest concentration with growth - lowest without growth
Residues, ends and D or L forms follow the SMILES beside them.
minimal inhibitory concentration (MIC) values for the compounds below.
PROPERTY: minimal inhibitory concentration (MIC)

- CC(C)C[C@H](NC(=O)[C@H](CCCNC(=N)N)NC(=O)[C@@H]1CCCN1C(=O)[C@H](Cc1c[nH]cn1)NC(=O)[C@@H]1CCCN1C(=O)[C@@H]1CCCN1C(=O)[C@H](CCCNC(=N)N)NC(=O)[C@@H]1CCCN1C(=O)[C@@H]1CCCN1C(=O)[C@@H](NC(=O)[C@H](CCC(N)=O)NC(=O)[C@H](CCC(N)=O)NC(=O)[C@@H]1CCCN1C(=O)[C@@H](N)CCCNC(=N)N)C(C)C)C(=O)O [Ho -] (H-RPQQVPPRPPHPRL-OH): 10 to 20 µg/mL
- CC(C)C[C@H](NC(=O)[C@H](CCCNC(=N)N)NC(=O)[C@@H]1CCCN1C(=O)[C@H](Cc1c[nH]cn1)NC(=O)[C@@H]1CCCN1C(=O)[C@@H]1CCCN1C(=O)[C@H](CCCNC(=N)N)NC(=O)[C@@H]1CCCN1C(=O)[C@@H]1CCCN1C(=O)[C@@H](NC(=O)[C@H](CCC(N)=O)NC(=O)[C@H](CCC(N)=O)NC(=O)[C@@H]1CCCN1C(=O)[C@H](CCCNC(=N)N)NC(=O)[C@@H]1CCCN1C(=O)[C@H](CCCCN)NC(=O)CN)C(C)C)C(=O)O [Ho +, G K P R P Q Q V P P R P P H P R L] (H-GKPRPQQVPPRPPHPRL-OH): 1 to 5 µg/mL

---

# Test system: Acinetobacter calcoaceticus
# ASSAY DETAILS: Inhibition zone assay (agar plate)
# Assay type: cell-based
# CONDITION PARAMETERS: agar plate, 50 nanomoles/well, 3 mm wells
Residues, ends and D or L forms follow the SMILES beside them.
PROPERTY: inhibition zone diameter (number of plus signs)

* CC[C@H](C)[C@H](NC(=O)[C@H](Cc1ccc(O)cc1)NC(=O)[C@@H](NC(=O)[C@@H]1CCCN1C(=O)[C@H](CCCNC(=N)N)NC(=O)[C@@H](N)CC(N)=O)C(C)C)C(=O)N1CCC[C@H]1C(=O)N1CCC[C@H]1C(=O)N1CCC[C@H]1C(=O)N[C@@H](CCCNC(=N)N)C(=O)N1CCC[C@H]1C(=O)N1CCC[C@H]1C(=O)N[C@@H](Cc1c[nH]cn1)C(=O)N1CCC[C@H]1C(=O)N[C@@H](CCCNC(=N)N)C(=O)N[C@@H](CC(C)C)C(=O)O [Bb-A] (H-NRPVYIPPPRPPHPRL-OH) | ++ ((++) 7-9 mm)
* CC[C@H](C)[C@H](NC(=O)[C@@H]1CCCN1C(=O)[C@H](C)NC(=O)[C@@H]1CCCN1C(=O)[C@H](CCCNC(=N)N)NC(=O)[C@@H]1CCCN1C(=O)[C@H](CCCNC(=N)N)NC(=O)[C@@H](N)CC(N)=O)C(=O)N[C@@H](CCC(N)=O)C(=O)N1CCC[C@H]1C(=O)N[C@@H](CCCNC(=N)N)C(=O)N1CCC[C@H]1C(=O)N1CCC[C@H]1C(=O)N[C@@H](Cc1c[nH]cn1)C(=O)N1CCC[C@H]1C(=O)N[C@@H](CCCNC(=N)N)C(=O)N[C@@H](CC(C)C)C(=O)O [Cd 1-] (H-NRPRPAPIQPRPPHPRL-OH) | ++ ((++) 7-9 mm)
* CC(C)C[C@H](NC(=O)[C@H](CCCNC(=N)N)NC(=O)[C@@H]1CCCN1C(=O)[C@H](Cc1c[nH]cn1)NC(=O)[C@@H]1CCCN1C(=O)[C@@H]1CCCN1C(=O)[C@H](CCCNC(=N)N)NC(=O)[C@@H]1CCCN1C(=O)[C@@H]1CCCN1C(=O)[C@@H](NC(=O)[C@H](CCC(N)=O)NC(=O)[C@H](CCC(N)=O)NC(=O)[C@@H]1CCCN1C(=O)[C@H](CCCNC(=N)N)NC(=O)[C@@H]1CCCN1C(=O)[C@H](CCCCN)NC(=O)[C@@H](N)CC(N)=O)C(C)C)C(=O)O [Yj -S] (H-NKPRPQQVPPRPPHPRL-OH) | ++ ((++) 7-9 mm)
* CC(C)C[C@H](NC(=O)[C@H](CCCNC(=N)N)NC(=O)[C@@H]1CCCN1C(=O)[C@H](Cc1c[nH]cn1)NC(=O)[C@@H]1CCCN1C(=O)[C@@H]1CCCN1C(=O)[C@H](CCCNC(=N)N)NC(=O)[C@@H]1CCCN1C(=O)[C@@H]1CCCN1C(=O)[C@@H](NC(=O)[C@H](CCC(N)=O)NC(=O)[C@H](CCC(N)=O)NC(=O)[C@@H]1CCCN1C(=O)[C@H](CCCNC(=N)N)NC(=O)[C@@H]1CCCN1C(=O)[C@H](CCCCN)NC(=O)CN)C(C)C)C(=O)O [Ho +, G K P R P Q Q V P P R P P H P R L] (H-GKPRPQQVPPRPPHPRL-OH) | + ((+) 5-6 mm)
* CC[C@H](C)[C@H](NC(=O)[C@@H]1CCCN1C(=O)[C@H](C)NC(=O)[C@@H]1CCCN1C(=O)[C@H](CCCNC(=N)N)NC(=O)[C@@H]1CCCN1C(=O)[C@H](CCCCN)NC(=O)[C@H](CO)NC(=O)[C@@H]1CCCN1C(=O)[C@H](CCCCN)NC(=O)CN)C(=O)N[C@@H](CCCCN)C(=O)N1CCC[C@H]1C(=O)N[C@@H](CCCNC(=N)N)C(=O)N1CCC[C@H]1C(=O)N1CCC[C@H]1C(=O)N[C@@H](Cc1c[nH]cn1)C(=O)N1CCC[C@H]1C(=O)N[C@@H](CCCNC(=N)N)C(=O)N[C@@H](CC(C)C)C(=O)O [Cd 3+] (H-GKPSKPRPAPIKPRPPHPRL-OH) | + ((+) 5-6 mm)
* CC[C@H](C)[C@H](NC(=O)[C@H](Cc1ccc(O)cc1)NC(=O)[C@@H](NC(=O)[C@@H]1CCCN1C(=O)[C@H](CCCNC(=N)N)NC(=O)[C@H](CC(N)=O)NC(=O)[C@H](C)N)C(C)C)C(=O)N1CCC[C@H]1C(=O)N1CCC[C@H]1C(=O)N1CCC[C@H]1C(=O)N[C@@H](CCCNC(=N)N)C(=O)N1CCC[C@H]1C(=O)N1CCC[C@H]1C(=O)N[C@@H](Cc1c[nH]cn1)C(=O)N1CCC[C@H]1C(=O)N[C@@H](CCCNC(=N)N)C(=O)N[C@@H](CC(C)C)C(=O)O [Bb+A] (H-ANRPVYIPPPRPPHPRL-OH) | ++ ((++) 7-9 mm)
